- System: A549
- protocol: Euclidean distance of Cell Painting phenotypic profile (signed KS, 77 features) to DMSO centroid (dimensionless distance); 5 or 10 uM (library dependent); higher = stronger phenotypic change vs DMSO (phenoactivity)
- measurement-conditions: 48 h
recorded-metric: Euclidean distance
Give bare numbers.

The cases that follow already have their Euclidean distance on record.
{"columns": ["compound", "val"],
 "data": [
  ["COCC(=O)Nc1c(I)c(C(=O)NCC(O)CO)c(I)c(C(=O)N(C)CC(O)CO)c1I (centres undefined) [Iopromide]", 0.999],
  ["C[S+]([O-])c1ccc(-c2nc(-c3ccc(F)cc3)c(-c3ccncc3)[nH]2)cc1 (centres undefined)", 0.978],
  ["Nc1cc(F)ccc1NC(=O)/C=C/c1cnn(C/C=C/c2ccccc2)c1", 1.02]
]}

Field: next compound
The recorded Euclidean distance for O=C(O)c1ccccc1C(=O)Nc1ccc(S(=O)(=O)Nc2nccs2)cc1 is 1.02
